Molecular target: Cytochrome P450 2C19 (Homo sapiens, UniProt P33261)
Sequence (P33261 whole entry): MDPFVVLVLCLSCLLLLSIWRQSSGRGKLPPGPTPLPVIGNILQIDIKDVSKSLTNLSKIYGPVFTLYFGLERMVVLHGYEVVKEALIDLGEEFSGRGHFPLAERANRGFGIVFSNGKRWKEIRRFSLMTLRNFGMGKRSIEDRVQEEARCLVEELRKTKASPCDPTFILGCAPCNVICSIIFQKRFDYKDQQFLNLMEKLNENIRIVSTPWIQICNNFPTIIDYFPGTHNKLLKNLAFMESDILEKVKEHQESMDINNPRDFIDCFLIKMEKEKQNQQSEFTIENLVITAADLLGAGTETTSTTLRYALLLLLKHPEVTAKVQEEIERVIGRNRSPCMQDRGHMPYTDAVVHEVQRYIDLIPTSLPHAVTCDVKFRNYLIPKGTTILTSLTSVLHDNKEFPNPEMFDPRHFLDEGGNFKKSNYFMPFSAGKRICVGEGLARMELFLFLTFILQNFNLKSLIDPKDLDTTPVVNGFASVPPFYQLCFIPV
Test: Inhibition of human recombinant CYP2C19 using smephenytoin substrate by LC-MS/MS method
Listed next: entries and their corresponding IC50.

chemical-string: Cc1nnc2n1-c1c(F)cc(-c3cncc(F)c3)cc1CC2
IC50: > 50 µM

**Query** For Cytochrome P450 2C19 (Homo sapiens, UniProt P33261), provide IC50 of Cc1ccncc1-c1cc(F)c2c(c1)CCc1nnc(C)n1-2 please.
**Result** > 50 µM

----------
Target: Cytochrome P450 2D6 (Homo sapiens)
Sequence (P10635 whole entry): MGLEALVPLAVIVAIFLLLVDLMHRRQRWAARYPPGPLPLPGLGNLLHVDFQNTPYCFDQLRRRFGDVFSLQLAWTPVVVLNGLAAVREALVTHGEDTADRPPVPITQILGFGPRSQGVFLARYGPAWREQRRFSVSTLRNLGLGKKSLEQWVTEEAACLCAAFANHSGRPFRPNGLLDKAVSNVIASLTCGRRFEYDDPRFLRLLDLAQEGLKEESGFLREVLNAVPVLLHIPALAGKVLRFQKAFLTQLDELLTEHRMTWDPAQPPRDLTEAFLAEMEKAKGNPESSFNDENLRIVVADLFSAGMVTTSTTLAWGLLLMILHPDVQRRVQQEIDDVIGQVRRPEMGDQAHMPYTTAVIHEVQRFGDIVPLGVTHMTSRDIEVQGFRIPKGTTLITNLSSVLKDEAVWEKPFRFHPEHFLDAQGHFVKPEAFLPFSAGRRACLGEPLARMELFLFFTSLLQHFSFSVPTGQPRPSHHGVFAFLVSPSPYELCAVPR
Assay: Inhibition of human recombinant CYP2D6 using bufuralol substrate by LC-MS/MS method
pIC50: −log10 of the molar value.
value-type: pIC50

chemical-string: Cc1nnc2n1-c1c(F)cc(-c3cncc(F)c3)cc1CC2
pIC50: < 4.30

**Query** For Cytochrome P450 2D6 (Homo sapiens), provide pIC50 of Cc1ccncc1-c1cc(F)c2c(c1)CCc1nnc(C)n1-2 please.
**Result** < 4.30
